- Tested on: primary human hepatic stellate cells (donor 1)
- procedure_details: scaled lipid accumulation score (0 = DMSO-like, 1 = nortriptyline-like); higher = stronger HSC inactivation (lipid re-accumulation), active = hit call of the paper
- test_conditions: library stock concentration: 1 mM; 48 h
Where a name gives a salt, the structure may show the parent alone. Out of some 5,800 compounds screened, about 620 (11%) showed activity. The list comes from a sample in which actives are over-represented; it also holds close analogues and randomly drawn compounds.
recorded_endpoint: scaled lipid accumulation score

1. O=P(O)(O)O[C@@H]1[C@H](O)[C@H](O)[C@@H](OP(=O)(O)O)[C@H](OP(=O)(O)O)[C@H]1O [D-myo-Inositol-1,4,5-triphosphate (sodium salt)]; 0.018 (inactive)
2. CCCCC/C=C/C/C=C/CCCCCCCC(=O)O [Linoelaidic Acid]; 0.006 (inactive)
3. CCCCCCCCCCCCCC(=O)N[C@H](CO)[C@H](O)c1ccc([N+](=O)[O-])cc1; 0.012 (inactive)
4. O=C1O/C(=C/Br)CC[C@@H]1c1cccc2ccccc12 [(R)-Bromoenol lactone]; 0.064 (inactive)
5. CC/C=C\C/C=C\C/C=C\C/C=C\C/C=C\CCCCCC(=O)O [Docosapentaenoic Acid]; ≤ 0 (inactive)
6. CC/C=C\C/C=C\C/C=C\C/C=C\C/C=C\CCCC(=O)O [Eicosapentaenoic acid (20:5 n-3)]; 0.009 (inactive)
7. COC(=O)[C@H](Cc1ccccc1)NC(=O)/C=C/c1ccc(O)cc1; 0.011 (inactive)
8. COc1ccc2c(c1)c(CC(=O)SC[C@H](NC(C)=O)C(=O)OCCCCO[N+](=O)[O-])c(C)n2C(=O)c1ccc(Cl)cc1 [NO-Indomethacin]; ≤ 0 (inactive)
9. O=P(O)(O)OC1C(O)C(OP(=O)(O)O)C(O)C(OP(=O)(O)O)C1O [D-myo-Inositol-1,3,5-triphosphate (sodium salt)]; 0.025 (inactive)
10. CCCCCCCCCCCCCC=CC(O)C(COP(=O)(O)O)NC(=O)CCCCCCC (stereo unspecified) [C-8 Ceramide-1-phosphate]; ≤ 0 (inactive)
11. O=C(O)CCC/C=C\C[C@H]1[C@@H](O)CC(=O)[C@@H]1/C=C/[C@@H](O)CCc1ccccc1 [17-phenyl trinor Prostaglandin D2]; ≤ 0 (inactive)
12. CCCCC[C@H]1C=C[C@@H]2[C@@H](CC=CCCCC(=O)O1)[C@@H](O)C[C@H]2O [Prostaglandin F2.alpha. 1,15-lactone]; ≤ 0 (inactive)
13. CC/C=C\C/C=C\C/C=C\CCCCCCCC(=O)N[C@@H](Cc1ccc(O)cc1)C(=O)O [N-(.alpha.-Linolenoyl) Tyrosine]; ≤ 0 (inactive)
14. O=C(O)CCCCC1CCSS1 (racemic) [DL-.alpha.-Lipoic Acid]; ≤ 0 (inactive)
15. CC/C=C/C[C@H](O)/C=C/[C@H]1[C@H](O)CC(=O)[C@@H]1C/C=C\CCCC(=O)O [17-trans Prostaglandin E3]; ≤ 0 (inactive)
16. CCCCCC(O)C=CC1C=CC(=O)C1CCCCCCC(=O)O (stereo unspecified) [8-iso Prostaglandin A1]; ≤ 0 (inactive)
17. CC(C)=CCC/C(C)=C/CC/C(C)=C/CC[C@]1(C)CCc2cc(O)c(C)c(C)c2O1 [.gamma.-Tocotrienol]; ≤ 0 (inactive)
18. CCCCCCCCCCCCCCCCOCC(COP(=O)([O-])OCC[N+](C)(C)C)OC (stereo unspecified) [1-Hexadecyl-2-methylglycero-3 PC]; 0.043 (inactive)
19. CCCCCCCCCCCCCCP(=O)(O)O [Tetradecyl Phosphonate]; ≤ 0 (inactive)
20. Nc1nc2c([nH]c(=O)n2[C@H]2C[C@H](O)[C@@H](CO)O2)c(=O)[nH]1 [8-hydroxy-2'-deoxy Guanosine]; ≤ 0 (inactive)
21. OCCNCCCOc1cccc(Cl)c1Cl [2,3-DCPE (hydrochloride)]; 0.049 (inactive)
22. CCCCC/C=C\C/C=C\C/C=C\C/C=C\CCCCN1C(=O)C=CC1=O [N-Arachidonyl Maleimide]; ≤ 0 (inactive)
23. C#CCCCCCCCCCNC(=O)Oc1cccc(-c2cccc(C(N)=O)c2)c1; ≤ 0 (inactive)
24. CC/C=C\C/C=C\C/C=C\C/C=C\C/C=C\CCCCCC(=O)O [Docosapentaenoic acid]; ≤ -0.021 (inactive)
25. COc1ccc(C2=N[C@@H](c3ccc(Cl)cc3)[C@@H](c3ccc(Cl)cc3)N2C(=O)N2CCNC(=O)C2)c(OC(C)C)c1; ≤ 0 (inactive)
26. CCCCCCCOC(=O)Cc1c(C)n(C(=O)c2ccc(Cl)cc2)c2ccc(OC)cc12 [Indomethacin heptyl ester]; 0.015 (inactive)
27. C#CCCC[C@@H](O)CCCCCCCCCCC(=O)O [12(S)-hydroxy-16-Heptadecynoic Acid]; ≤ 0 (inactive)
28. CC(C)(C)OC(=O)Nc1cccc2[nH]ccc12 [(1H-Indol-4-yl)-Carbamic Acid tert-butyl ester]; ≤ 0 (inactive)
29. CC(Cc1ccc(O)c(O)c1)C(C)Cc1ccc(O)c(O)c1 (stereo unspecified) [Nordihydroguaiaretic Acid]; 0.042 (inactive)
30. CCCCCCCCCCCCCCOc1ccc(C(=O)O)o1; 0.036 (inactive)
31. CCC=CCC=CCC=CCCCCCCCCCC(=O)O [11(Z),14(Z),17(Z)-Eicosatrienoic Acid]; ≤ 0 (inactive)
